Collected max response values appear next to each entry.
# MEASUREMENT NOTES: Cycloheximide Counterscreen for Small Molecule Inhibitors of Shiga Toxin; also: read at 38.3 µM for the half of the compounds with a filed dose; 0% is about no effect
# CONDITION DETAILS: cell reporter, cycloheximide protein synthesis inhibition counterscreen; stronger effect = higher value
In all, about 300,000 compounds went through this assay and about 37,000 (12%) were called active. The list comes from a sample in which actives are over-represented; it also holds close analogues and randomly drawn compounds.

COMPOUND	max response [%]
Cn1nc(C(F)(F)F)cc1C(=O)O	-2.03
CC(Cc1cccs1)NC(=O)c1cccc(Cl)c1 (stereo not given)	54.9
CC1CCN(CCCNC(=O)CN2C(=O)CSc3ccc(S(=O)(=O)N4CCCCC4)cc32)CC1	-0.237
COc1ccc(S(=O)(=O)N(C)CC(=O)NCCCN2CCOCC2)cc1Cl	-1.58
CCn1c(SCC(=O)Nc2ccc(Br)cc2)nc2sc3c(c2c1=O)CCN(C)C3	9.46
Cc1ccc(NC(=O)CC2C(=O)N(Cc3ccccc3)C(=S)N2NC(=O)c2cccc(F)c2)c(C)c1 (stereo not given)	-8.81
CCCNCc1cc(OCC)c(OCC(=O)Nc2ccccc2)cc1Br	-0.891
COc1ccc(-c2csc3ncnc(N4CCN(S(=O)(=O)c5ccccc5C#N)CC4)c23)cc1	-2.23
Cc1cc(C(=O)NNS(=O)(=O)c2ccccc2C(F)(F)F)nn1C(C)(C)C	7.74
NNC(=O)CNC(c1ccccc1)c1cc(Cl)ccc1NC(=O)c1ccccc1 (stereo not given)	-3.14

====

# MEASUREMENT NOTES: Cycloheximide Counterscreen for Small Molecule Inhibitors of Shiga Toxin; also: read at 38.3 µM for the half of the compounds with a filed dose; 0% is about no effect
# CONDITION DETAILS: cell reporter, cycloheximide protein synthesis inhibition counterscreen; stronger effect = higher value
Among all 300,000 compounds or so, about 37,000 (12%) were called active. The sample holds actives, similar compounds and a random draw of the others, so the mix is not that of the screen.
Catalogue of compounds with associated max response
PROPERTY: max response (%)

COMPOUND	PROPERTY	UNIT	VALUE REPORTED
CCn1nc(C)cc1C(=O)N1CCCC(C(=O)c2cccc(OC)c2)C1 (stereo not given)	max response	%	2.78
COc1cccc(-c2noc(C3CCCN(C(=O)c4ccc(F)cc4)C3)n2)c1 (stereo not given)	max response	%	20.6
O=C(Cc1cccs1)N1CCCC(c2nc(-c3ccc(S(=O)(=O)N4CCCC4)cc3)no2)C1 (stereo not given)	max response	%	-2.82
COc1cc(-c2noc(C3CCCN(S(=O)(=O)c4cccc(Cl)c4)C3)n2)cc(OC)c1OC (stereo not given)	max response	%	-4.41
O=C(c1ccc(F)cc1)N1CCCC(C(=O)N2CCCCC2)C1 (stereo not given)	max response	%	-3.54

====

# max response per entry
# MEASUREMENT NOTES: Cycloheximide Counterscreen for Small Molecule Inhibitors of Shiga Toxin; also: read at 38.3 µM for the half of the compounds with a filed dose; 0% is about no effect
# CONDITION DETAILS: cell reporter, cycloheximide protein synthesis inhibition counterscreen; stronger effect = higher value
In all, about 300,000 compounds went through this assay and about 37,000 (12%) were called active. What follows is part of a selection rich in actives, with near analogues and random picks from the rest.
PROPERTY: max response (%)

COMPOUND	PROPERTY	UNIT	VALUE REPORTED
Cn1c(SCc2nc3ccccc3s2)nnc1-c1ccc2c(c1)OCO2	max response	%	39.5
CC(=O)c1nn(-c2cccc(C(F)(F)F)c2)c(=O)[nH]c1=O	max response	%	-1.16
Cc1ccccc1Nc1scc(-c2ccc(Br)cc2)[n+]1-c1ccccc1C	max response	%	12.1
CS(=O)(=O)c1ccc(-c2nnn(CC(=O)Nc3ccc4c(c3)OCCO4)n2)cc1	max response	%	15.4
O=C(CSc1nc2ncccc2[nH]1)Nc1ccc2c(c1)OCCO2	max response	%	25.8
Cc1ccc(S(=O)(=O)N2CCN(C)CC2)cc1C(=O)NC1CCCCC1	max response	%	-0.406
O=C(CN1C(=O)COc2ccc(Cl)cc21)Nc1ccc(N2CCOCC2)cc1	max response	%	1.87
O=C(Nc1cc(N2CCOCC2)ncn1)NC1(C(F)(F)F)Oc2ccc(Cl)cc2O1 (stereo not drawn)	max response	%	45.4
Cc1onc(NC(=O)c2ccc([N+](=O)[O-])o2)c1Br	max response	%	60.9
Cn1c(SCC(=O)N2CCOCC2)nnc1-c1ccc(NC(=O)c2ccccc2F)cc1	max response	%	-4.11
CC(C)c1ccc(OCC(=O)N2CCN(C)CC2)c(Br)c1	max response	%	11.3
Cc1ccc(-c2nn(-c3ccccc3)cc2/C=C2\SC(=S)N(CCCCCC(=O)O)C2=O)o1	max response	%	1.36
Cc1cccc(CSc2nc3c(c(=O)n2C)SCC3)c1	max response	%	8.73
Cc1nc(C(=O)Nc2ccc(Cl)cc2)sc1C1(C)CC(c2ccccc2)=NO1 (stereo not drawn)	max response	%	9.03
CCCNC(=O)OC[C@H]1O[C@H](CCO/N=C/[C@@H](NS(=O)(=O)c2ccc(C)cc2)[C@H](C)/C=C/CC(=O)OC)C=C[C@@H]1Oc1ccc(OC)cc1	max response	%	-2.36
Cc1cccc(NC(=O)c2sc(-c3ccccc3)nc2-c2ccc([N+](=O)[O-])cc2)c1	max response	%	-2.46
COc1ccc(/C=C2\SC(=S)N(CCC(=O)Nc3ccccn3)C2=O)cc1OC	max response	%	-7.17
CC(C)c1ccc(OCC(=O)N2CCCN(C)CC2)cc1	max response	%	14.8
CC(C)NS(=O)(=O)c1ccc(OCC(=O)Nc2ccc3c(c2)OCCO3)cc1	max response	%	2.4
O=C(CN(c1ccc2c(c1)OCCO2)S(=O)(=O)c1ccccc1)Nc1ccc2c(c1)OCO2	max response	%	11.4
OCCNc1nc2ccccc2n1-c1ncnc2sc3c(c12)CCC3	max response	%	-6.62
O=C(COC(=O)C1CCCCC1)Nc1ccc([N+](=O)[O-])cc1	max response	%	24.8
Cc1csc(NC(=O)NC2(C(F)(F)F)Oc3ccccc3O2)n1	max response	%	1.16
CCc1ccccc1OCC(=O)Nc1ccc2c(c1)OCCO2	max response	%	35.2
Cc1ccccc1-c1nnc(SCC(=O)NCc2ccc3c(c2)OCO3)n1C	max response	%	-2.35
CCC(Sc1nncn1C)C(=O)Nc1nnc(-c2ccc(Cl)cc2)s1 (stereo not drawn)	max response	%	11.6
COc1ccc(-n2nc(C(=O)NCC(=O)N3CCCCCC3)c3ccccc3c2=O)cc1Cl	max response	%	1.06
Cc1cc(NS(=O)(=O)c2ccc(NC(=S)NC(=O)c3ccc(F)cc3Cl)cc2)no1	max response	%	-1.71
Cn1c(SCC(=O)N2CCCC2)nnc1-c1ccc2c(c1)OCO2	max response	%	18.9
Cc1ccc(C(=O)Nc2nnc(-c3ccncc3)s2)o1	max response	%	0.697
NC(=O)c1ccc(NC(=O)COC(=O)c2ccc([N+](=O)[O-])cc2)cc1	max response	%	0.779
CCN1CCC2(CC1)N=C(c1ccc(F)cc1)C(=S)N2C(=O)c1ccc(C)cc1	max response	%	-0.381
Cc1cccc(C(=O)Nc2ccccc2-c2nnn(CC(=O)Nc3ccc4c(c3)OCCO4)n2)c1	max response	%	-4.9
Cc1cccc(NC(=O)c2ccc([N+](=O)[O-])o2)c1	max response	%	29.4
Cn1c(Nc2ccccc2)cc(=O)n(C)c1=O	max response	%	-4.74
COc1ccc(NC(=O)CN(C)S(=O)(=O)c2ccccc2)cc1OC	max response	%	-1.84
CCOC(=O)c1ccc(N/C(=N/S(=O)(=O)c2ccccc2)c2ccccc2)cc1	max response	%	10.2
CN1CCN(C(=O)COc2ccc(C(C)(C)C)cc2Br)CC1	max response	%	-0.455
Cn1c(SCC(=O)N2CCOCC2)nnc1-c1ccc2ncccc2c1	max response	%	-0.963
Cc1onc(C(=O)NCc2ccc(F)cc2)c1[N+](=O)[O-]	max response	%	4.59
CCOC(=O)c1ccc(NC(=O)Cn2nnc(-c3ccc(C)cc3)n2)cc1	max response	%	-3.53
Cc1nc(C(=O)NCc2ccccc2)sc1C1(C)CC(c2cccnc2)=NO1 (stereo not drawn)	max response	%	-3.23
O=C(CCc1c[nH]c2ccccc12)NCCOc1ccccc1	max response	%	25.1
